Each recorded value in this set is attributed to paper PMC12752568.

Biological target: Forkhead box protein C2 (FOXC2) (Homo sapiens, UniProt Q99958, S125A)
Construct: recombinant His-tagged FOXC2 mutant 1, purified from HEK293T cells
Test: BLI (Octet RED […], Ni-NTA sensors)

Smi | Target Entity | Kd
O=C1c2cccc(O)c2C(=O)c2c(O)cc(CO)cc21 | Forkhead box protein C2 (FOXC2) (Homo sapiens, UniProt Q99958, S125A) | 13.3 µM

====

Biological target: Forkhead box protein C2 (FOXC2) (Homo sapiens, UniProt Q99958)
Construct: recombinant His-tagged FOXC2 (WT), purified from HEK293T cells
Sequence (Q99958 1-501): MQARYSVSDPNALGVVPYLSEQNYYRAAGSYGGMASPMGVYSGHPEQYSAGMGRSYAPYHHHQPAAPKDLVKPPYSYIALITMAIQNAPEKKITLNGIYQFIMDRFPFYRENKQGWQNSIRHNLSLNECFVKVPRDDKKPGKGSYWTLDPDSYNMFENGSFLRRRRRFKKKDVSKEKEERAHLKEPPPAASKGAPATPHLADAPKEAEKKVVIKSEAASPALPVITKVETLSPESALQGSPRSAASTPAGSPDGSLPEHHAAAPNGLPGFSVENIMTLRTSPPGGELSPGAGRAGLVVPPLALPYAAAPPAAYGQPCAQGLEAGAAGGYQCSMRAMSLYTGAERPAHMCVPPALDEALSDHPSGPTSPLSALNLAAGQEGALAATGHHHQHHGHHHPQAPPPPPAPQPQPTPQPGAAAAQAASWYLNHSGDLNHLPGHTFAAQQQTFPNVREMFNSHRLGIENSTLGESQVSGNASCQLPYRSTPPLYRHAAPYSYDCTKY
Test: BLI (Octet RED […], Ni-NTA sensors); supported by AE-bead competitive pull-down from PMCs

Smi | Endpoint Unit | Kd
O=C1c2cccc(O)c2C(=O)c2c(O)cc(CO)cc21 | µM | 8.25
